FYI, the data here is from patent US8349886B2.

Target entity: GST-hLGK1 (human liver type GK) (Homo sapiens, UniProt P35557)
Construct: made in house; host or cells: Escherichia coli BL21 (Stratagene), plasmid pGEX6P-2/hLGK1
Sequence (P35557 1-464 isoform P35557-3): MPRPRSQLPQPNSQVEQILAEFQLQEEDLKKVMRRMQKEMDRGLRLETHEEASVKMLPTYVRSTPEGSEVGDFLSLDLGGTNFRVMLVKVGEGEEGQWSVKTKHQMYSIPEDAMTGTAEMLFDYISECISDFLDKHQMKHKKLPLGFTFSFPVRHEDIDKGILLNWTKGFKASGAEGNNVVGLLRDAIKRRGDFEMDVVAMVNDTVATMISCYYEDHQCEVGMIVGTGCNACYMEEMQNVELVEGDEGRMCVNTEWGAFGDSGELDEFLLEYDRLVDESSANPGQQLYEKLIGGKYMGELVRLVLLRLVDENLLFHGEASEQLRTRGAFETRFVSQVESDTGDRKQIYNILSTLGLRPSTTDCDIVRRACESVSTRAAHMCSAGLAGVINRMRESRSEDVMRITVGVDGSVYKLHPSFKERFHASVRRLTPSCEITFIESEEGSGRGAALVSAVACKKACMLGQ
Method notes: Measurement of GK activation value (Mant-ATP/Mant-ADP capillary electrophoresis)
Format: biochemical
Assay context: test compound 10 μmol/L; 5 mmol/L D-glucose; reaction rate as percentage of control group without test compound
Measured endpoint: Emax at 10 µM (%)

# Molecule, Unit tag, Emax at 10 µM
rows = [
    ("CC(C)(O)C(O)c1ccc(-c2ccc(C(CC3CCOCC3)n3ncc4c(S(=O)(=O)C5CC5)cccc43)[nH]2)nc1 (stereo not shown)", "%", 161),
    ("COc1ccc2c(cnn2C(CC2CCOCC2)c2ccc(-c3ccc(C(O)C(C)(C)O)cn3)[nH]2)c1S(=O)(=O)C1CC1 (stereo not shown)", "%", 162),
    ("Cn1nc(C(CC2CCOCC2)c2ccc(-c3ncc(CO)s3)[nH]2)cc1S(C)(=O)=O (stereo not shown)", "%", 138),
    ("COc1ccnc2c1cnn2C(CC1CCOCC1)c1ccc(-c2ccc(C(O)C(C)(C)O)cn2)[nH]1 (stereo not shown)", "%", 124),
]
